Recorded values, source PubChem BioAssay (NCI).

System: MDA-MB-468 breast
Test: NCI-60 one-dose screen, 48 h
Details: 10 µM unless noted
About 83,000 compounds went through this panel and 20% of them were active in at least one assay; those are over-represented in the sample as a whole. Active and inactive are the calls of the source. The calls were made as follows: active = growth percent below 10; inactive = the rest.
Choose the fitting class; nothing outside t (active), f (inactive) is accepted.

Solved cases (3 shown):
Compound	Assigned class
CCCCCCCCC/C(=N\NC(=O)c1ccncc1)c1ccc(O)c(O)c1O	f
O=C1CCCc2nc(Nc3ccc(S(=O)(=O)Nc4ccc([N+](=O)[O-])cc4)cc3)ncc21	f
COC(=O)c1c(C)nc(C)c2c1C(=O)C=C(NCc1ccccc1)C2=O	f

How did this test come out for N#C/C(=C\c1ccc(-c2ccc(Cl)cc2)o1)C(=O)Nc1ncc(Cc2ccc(Cl)cc2)s1 ?
f

Recorded call for O=S1SC(c2ccccc2)=NN1c1cc(F)cc(F)c1 (stereo not given) ?
f

Please share the test call associated with N#CCCN(CCO)c1ccccc1 .
f

Outcome logged for COc1cc2nc(Cl)nc(Nc3cccc(C(=O)/C=C/c4ccc(Br)cc4)c3)c2cc1OC in this assay:
f

Which result was noted for this compound in the test: CCN(CC)c1ccc(/C=N/NC(=O)CSc2nc3ccccc3c(=O)n2Cc2ccc(S(N)(=O)=O)cc2)c(O)c1
t

----------
System: MDA-MB-468 breast
Assay: NCI-60 one-dose screen, 48 h
Details: 10 µM unless noted
The panel holds about 83,000 compounds, 20% with a hit somewhere; the sample as a whole holds those more often. Active and inactive are the calls of the source. How the source made its calls: active means growth percent below 10; inactive means the rest.
Your reply should match one of these outcome classes. active, inactive

Example entries and their recorded answers appear below.
                                   compound  assigned_class
0        CCOC(=O)/C(C#N)=C\c1c[nH]c2ccccc12        inactive
1  Cc1cc2nc3c4cc(Cl)ccc4n(CC(=S)NCCN(C)C)c3nc2cc1C          active
2  Cc1ccn2c3c(c(C(=O)O)c2c1)C(=O)c1ccccc1C3=O        inactive
3  Cc1cc2nc(CC(=O)c3cccc([N+](=O)[O-])c3)c(=O)[nH]c2cc1C        inactive

Per the records of this test, what outcome belongs to Fc1cnccc1C1CC(c2ccc(N3CCNCC3)cc2)=NN1 (stereo not given) ?
inactive

----------
System: TK-10 renal
Test: NCI-60 one-dose screen, 48 h
Settings: 10 µM
The panel holds about 83,000 compounds, 20% with a hit somewhere; the sample as a whole holds those more often. Calls of active or inactive are those of the source. Rule for the calls: active = growth percent below 10; inactive = the rest.
Choose one outcome from this list and give only that: active, inactive

// below: answered compounds
                               input_smiles  assigned_class
0  O=C(CSc1nc2ccccc2c(=O)n1-c1ccc(Cl)cc1)Nc1ccc(-c2nc3ccc([N+](=O)[O-])cc3[nH]2)cc1        inactive
1  Cc1ccc(S(=O)(=O)N2CCN(S(=O)(=O)c3oc(-c4ccccc4)nc3C#N)CC2)cc1        inactive
2  CCn1c(SCC(=O)Nc2ccc(-c3nc4ccccc4[nH]3)cc2)nc2ccccc2c1=O          active

What classification did O=C(CN1CCN(c2ncnc3c2cnn3-c2ccccc2)CC1)Nc1ccc(Br)cc1 end up with in this test?
inactive

Identify the outcome logged in this assay for the compound shown: Cc1ccc(-c2nc(C#N)c(S(=O)(=O)N3CCN(S(C)(=O)=O)CC3)o2)cc1
inactive

Hey, what did the test say about COc1ccc(-n2c(SCC(=O)NNS(=O)(=O)c3ccccc3)nc3ccc(Cl)cc3c2=O)cc1 ?
inactive
